Test system: LTBP1-proTGFβ1, LTBP3-proTGFβ1, GARP-proTGFβ1 and LRRC33-proTGFβ1 complexes
Assay: BLI (OCTET), binding profile and bias across the four complexes
Set-up: species or system human
Details: ratio of average KD cell-associated / matrix-associated
Quantity Kind: (H) G/D (fold bias)

INSERT INTO assay_data (molecule, quantity_kind, test_result) VALUES
  ('Ab28: proTGFβ1 antibody; VH SEQ ID NO: 136, VL SEQ ID NO: 15 (antibody, V domains shown) VH: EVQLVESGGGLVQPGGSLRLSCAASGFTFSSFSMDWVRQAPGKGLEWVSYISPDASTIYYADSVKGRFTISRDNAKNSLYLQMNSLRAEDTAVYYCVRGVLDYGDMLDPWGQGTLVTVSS VL: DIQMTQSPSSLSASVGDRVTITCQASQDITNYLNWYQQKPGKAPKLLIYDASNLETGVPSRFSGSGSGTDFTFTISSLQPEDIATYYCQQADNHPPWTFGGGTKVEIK', '(H) G/D (fold bias)', '1.838 fold');
